The measurements presented in this section are drawn from ChEMBL document CHEMBL5291721.

target: Voltage-gated inwardly rectifying potassium channel KCNH2 (Homo sapiens); type: functional; further: assay procedure not described here
Sequence (Q12809 whole entry): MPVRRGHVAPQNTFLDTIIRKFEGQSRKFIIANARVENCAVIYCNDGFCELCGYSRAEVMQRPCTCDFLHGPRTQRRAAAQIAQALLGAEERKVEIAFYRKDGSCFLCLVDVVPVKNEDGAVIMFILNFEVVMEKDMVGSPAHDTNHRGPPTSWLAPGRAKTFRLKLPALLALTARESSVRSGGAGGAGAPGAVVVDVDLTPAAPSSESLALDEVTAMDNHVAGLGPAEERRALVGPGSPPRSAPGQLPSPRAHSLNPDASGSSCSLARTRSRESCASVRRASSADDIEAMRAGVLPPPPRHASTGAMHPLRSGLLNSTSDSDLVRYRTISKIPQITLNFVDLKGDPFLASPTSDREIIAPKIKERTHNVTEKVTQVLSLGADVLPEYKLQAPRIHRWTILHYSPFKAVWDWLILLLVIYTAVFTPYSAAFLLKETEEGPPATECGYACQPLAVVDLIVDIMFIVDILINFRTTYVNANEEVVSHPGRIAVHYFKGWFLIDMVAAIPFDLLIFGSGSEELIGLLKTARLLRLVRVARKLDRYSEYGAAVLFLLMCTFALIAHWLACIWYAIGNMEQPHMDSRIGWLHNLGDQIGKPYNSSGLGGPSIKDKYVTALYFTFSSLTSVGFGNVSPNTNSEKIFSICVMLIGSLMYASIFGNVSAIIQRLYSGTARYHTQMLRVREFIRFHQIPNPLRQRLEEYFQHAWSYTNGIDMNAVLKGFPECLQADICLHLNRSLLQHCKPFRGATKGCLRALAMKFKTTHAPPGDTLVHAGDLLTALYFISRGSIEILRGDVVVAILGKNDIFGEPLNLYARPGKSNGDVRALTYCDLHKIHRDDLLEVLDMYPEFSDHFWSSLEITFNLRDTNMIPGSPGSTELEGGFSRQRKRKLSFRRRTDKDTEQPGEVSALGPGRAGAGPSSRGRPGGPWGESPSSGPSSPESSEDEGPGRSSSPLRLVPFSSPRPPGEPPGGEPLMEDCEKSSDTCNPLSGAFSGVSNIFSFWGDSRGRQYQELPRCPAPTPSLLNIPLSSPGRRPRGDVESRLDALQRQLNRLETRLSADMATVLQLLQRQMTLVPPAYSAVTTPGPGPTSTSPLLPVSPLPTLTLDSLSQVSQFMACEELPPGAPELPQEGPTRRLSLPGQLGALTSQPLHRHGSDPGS
// reported AC50 for each item listed

• CC(C)N(CCNC(=O)CN1CCCC1=O)C(C)C = > 30 µM
• C[C@H]1c2cccc(O)c2C(=O)C2=C(O)[C@]3(O)C(=O)C(C(N)=O)=C(O)[C@@H](N(C)C)[C@@H]3[C@@H](O)[C@@H]21 = > 30 µM
• Cc1ccccc1N1CCN(CCc2nnc3n2CCCC3)CC1 = > 30 µM

The record that follows has no AC50 shown yet.
input: Enter AC50 (test system Voltage-gated inwardly rectifying potassium channel KCNH2 (Homo sapiens)) for CC12CC3CC(C)(C1)CC(N)(C3)C2 [MEMANTINE]; further: assay procedure not described here
output: > 30 µM
